- System: U2OS
- Test Details: cell viability relative to DMSO; higher = less toxic
- Test Context: 72 h; 10000 nM
Items are presented alongside their recorded cell viability.

Molecule | System | cell viability [%]
Cc1nc(Nc2ccc(F)cc2)nc(N2CCc3ccccc3C2C)c1C (stereo not drawn) [revaprazan] | U2OS | 81.5
Cc1cc(SCc2sc(-c3ccc(C(F)(F)F)c(F)c3)nc2C)ccc1OCC(=O)O [GW-0742] | U2OS | 99.7
CC(C)(C)/[N+]([O-])=C/c1ccc(S(=O)(=O)O)cc1S(=O)(=O)O [NXY-059] | U2OS | 106
Nc1nc(NC2CC2)cc(-c2cccc(Cl)c2Cl)n1 [TH-588] | U2OS | 98.6
O=C(/C=C/c1ccccc1)NCCO [brolitene] | U2OS | 99.2
O=C(O)CCNc1cc(N2CCc3ccccc3CC2)nc(-c2cccnc2)n1 [GSK-J2] | U2OS | 91.2
CN1CCN(C(c2ccccc2)c2ccc(Cl)cc2)CC1 (stereo not drawn) [chlorcyclizine] | U2OS | 88.8
OC(CN1CCN(c2cccc(Cl)c2)CC1)C(c1ccccc1)c1ccccc1 (stereo not drawn) | U2OS | 92.8
CNC(=O)c1ccccc1Sc1ccc2c(/C=C/c3ccccn3)n[nH]c2c1 [axitinib] | U2OS | 74
CC(C)Nc1nc2cc(Cl)c(Cl)cc2n1[C@H]1O[C@@H](CO)[C@H](O)[C@@H]1O [maribavir] | U2OS | 93.7
CN[C@H](CC(C)C)C(=O)N[C@H]1C(=O)N[C@@H](CC(N)=O)C(=O)N[C@H]2C(=O)N[C@H]3C(=O)N[C@H](C(=O)N[C@H](C(=O)O)c4cc(O)cc(O)c4-c4cc3ccc4O)[C@H](O[C@H]3C[C@](C)(N)[C@@H](O)[C@H](C)O3)c3ccc(c(Cl)c3)Oc3cc2cc(c3O[C@@H]2O[C@H](CO)[C@@H](O)[C@H](O)[C@H]2O[C@H]2C[C@](C)(NCc3ccc(-c4ccc(Cl)cc4)cc3)[C@@H](O)[C@H](C)O2)Oc2ccc(cc2Cl)[C@H]1O [oritavancin] | U2OS | 102
c1ccc2nc(N3CCNCC3)ccc2c1 [quipazine] | U2OS | 100
CC12CC3CC(C)(C1)CC(N)(C3)C2 [memantine] | U2OS | 98.9
CC(C)[C@H](CO)Nc1nc(Nc2cc(N)cc(Cl)c2)c2ncn(C(C)C)c2n1 [aminopurvalanol-a] | U2OS | 34
CN1C(=O)c2c(nn(Cc3ccc(-c4cccc(F)n4)cc3)c2Nc2ccccc2)N2C1=N[C@@H]1CCC[C@@H]12 [ITI214] | U2OS | 89.3
C=C[C@@H]1C[C@]1(NC(=O)[C@@H]1C[C@@H]2CN1C(=O)[C@H](C(C)(C)C)NC(=O)O[C@@H]1C[C@H]1CCCCCc1nc3ccc(OC)cc3nc1O2)C(=O)NS(=O)(=O)C1CC1 [grazoprevir] | U2OS | 90.4
Cc1c(OCC(F)(F)F)ccnc1C[S+]([O-])c1nc2ccccc2[nH]1 (stereo not drawn) [lansoprazole] | U2OS | 93.8
C=CCOc1ccccc1OCC(O)CNC(C)C (stereo not drawn) [oxprenolol] | U2OS | 102
CN(C)C(=O)Oc1ccc[n+](C)c1 [mestinon] | U2OS | 104
CCc1nn(CCCN2CCN(c3cccc(Cl)c3)CC2)c(=O)n1CCOc1ccccc1 [nefazodone] | U2OS | 97.4
c1ccc2c(c1)CCCc1cc(NCCN3CCOCC3)nnc1-2 | U2OS | 96.6
O=S(=O)(c1ccccc1)c1cnc2c(N3CCNCC3)cccc2c1 | U2OS | 97
CCNCCS(=O)(=O)NC[C@@]1(c2ccccc2)SC(NC(=O)C(C)(C)C)=NN1C(=O)C(C)(C)C [litronesib] | U2OS | 44.8
O=C(O)/C=C\c1c[nH]cn1 [cis-Urocanic acid] | U2OS | 100
CS(=O)(=O)OC[C@H](O)[C@@H](O)COS(C)(=O)=O [treosulfan] | U2OS | 99.2
O=C1NC(=O)C(c2ccccc2[N+](=O)[O-])=C1Nc1ccc(O)c(Cl)c1 | U2OS | 104
CC1(C)N=C(N)N=C(N)N1OCCCOc1cc(Cl)c(Cl)cc1Cl | U2OS | 95
N[C@@H](C(=O)O)[C@@H](OCc1ccccc1)C(=O)O.N[C@H](C(=O)O)[C@H](OCc1ccccc1)C(=O)O [TBOA-(DL)] | U2OS | 99.2
O=C(CN1C(=O)C2(CCCC2)NC[C@H]1c1cc(F)cc(F)c1)Nc1ccc2c(c1)C[C@@]1(C2)C(=O)Nc2ncccc21 [MK-3207] | U2OS | 101
C[C@@]1(F)[C@H](O)[C@@H](CO)O[C@H]1n1ccc(N)nc1=O [PSI-6130] | U2OS | 107
CN1CCCCC1Cn1cc(C(=O)c2cc([N+](=O)[O-])ccc2I)c2ccccc21 (stereo not drawn) [AM-1241] | U2OS | 99
O=C1c2ccccc2-c2c(NCCc3ccccc3)c(=O)[nH]c3cccc1c23 [BRD7389] | U2OS | 44.5
CN(C)C(=O)N[C@H]1CC[C@H](CCN2CCN(c3cccc(Cl)c3Cl)CC2)CC1 [cariprazine] | U2OS | 100

* * *

Reported cell viability values are given for each entry in this list.
- Tested on: Calu-3
- Test Details: cell viability relative to DMSO; higher = less toxic
- Test Context: 72 h; 1 nM

Compound | cell viability [%]
CC12CC3CC(C)(C1)CC(N)(C3)C2 [memantine] | 101
CN1CCCCC1Cn1cc(C(=O)c2cc([N+](=O)[O-])ccc2I)c2ccccc21 (centres undefined) | 103
Nc1nc2c(c(N3CCNCC3)n1)CCC1=C2[C@@H]2CCCC[C@@H]2O1 | 104
Nc1nc(NC2CC2)cc(-c2cccc(Cl)c2Cl)n1 | 95.5
C[C@@H](CN1CCC(Cc2ccccc2)CC1)[C@@H](O)c1ccc(O)cc1 | 97.4
Nc1cc(C(F)(F)F)c(-c2nc(N3CCOCC3)nc(N3CCOCC3)n2)cn1 | 88.3
CC(C)=CCC/C(C)=C/CNCCNC1C2CC3CC(C2)CC1C3 (centres undefined) | 94.2
CC(C)(C)NCC(O)COc1cccc2[nH]c(=O)[nH]c12 (centres undefined) | 94.9
CNC(=O)[C@H](Cc1c[nH]c2ccccc12)NC(=O)[C@@H](CC(=O)NO)CC(C)C | 102

* * *

- System: A549-ACE2
- Test Details: drug-induced phospholipidosis relative to tamoxifen; higher = more phospholipidosis
- Test Context: 3.33333 µM; 24 h
Attribute Measured: drug-induced phospholipidosis (%)

Smiles Record | Unit Abbrev | Result Value
O=S(=O)(NCC1CC1)c1ccc(Nc2nccc(N3CCCc4cc(O)ccc43)n2)cc1 | % | 132
C[C@@H](Oc1cc(-n2cnc3ccc(CN4CCN(C)CC4)cc32)sc1C(N)=O)c1ccccc1C(F)(F)F | % | 156
CCC(CC)COC(=O)[C@H](C)N[P@](=O)(OC[C@H]1O[C@@](C#N)(c2ccc3c(N)ncnn23)[C@H](O)[C@@H]1O)Oc1ccccc1 | % | 5.63
O=C1NC(=O)C(c2cnc3ccccn23)=C1c1cn2c3c(cc(F)cc13)CN(C(=O)N1CCCCC1)CC2 | % | -2.04
COc1ccc(NC(=O)c2ccc(-c3ccc(-c4noc(C)n4)cc3C)cc2)cc1N1CCN(C)CC1 | % | 61.8

* * *

Each entry below carries its recorded drug sensitivity score.
- Tested on: Caco-2
- Test Details: drug sensitivity score (DSS) for viability; higher = more toxic; extreme values may be limits of the assay
- Test Context: 72 h

Compound | drug sensitivity score
Cc1[nH]c(/C=C2\C(=O)Nc3ccc(S(=O)(=O)N(C)c4cccc(Cl)c4)cc32)c(C)c1C(=O)N1CCN(C)CC1 | 0.5
[O-][S+](c1ccccc1)c1ccc2nnnn2n1 (centres undefined) | 4
CC1CCN(CCCC(=O)c2ccc(F)cc2)CC1 | 0
O=c1c(O[C@@H]2O[C@H](CO)[C@H](O)[C@H](O)[C@H]2O)c(-c2ccc(O)c(O)c2)oc2cc(O)cc(O)c12 | 0

* * *

Reported values of cell viability for individual entries
- System: Calu-3
- Test Details: cell viability relative to DMSO; higher = less toxic
- Test Context: 72 h; 10000 nM
Attribute Measured: cell viability (%)

Compound | Unit Abbrev | Result Value
c1ccc2c(c1)CCCc1cc(NCCN3CCOCC3)nnc1-2 | % | 94.9
Cc1c(NC(=O)c2cccnc2)c(=O)n(-c2ccccc2)n1C [nifenazone] | % | 106
O=C(O)Cn1c2c(c3cc(F)ccc31)CN(C(=O)c1cccc3ccccc13)CC2 [setipiprant] | % | 86.5
CC(C)Oc1ccc(-c2nc(-c3cccc4c3CC[C@@H]4NCCO)no2)cc1C#N [ozanimod] | % | 73.1
OC(CN1CCN(c2cccc(Cl)c2)CC1)C(c1ccccc1)c1ccccc1 (stereo not drawn) | % | 104
N[C@@H](C(=O)O)[C@@H](OCc1ccccc1)C(=O)O.N[C@H](C(=O)O)[C@H](OCc1ccccc1)C(=O)O [TBOA-(DL)] | % | 109
CS(=O)(=O)Oc1ccc2c(NC(N)=O)c(C(=O)c3ccc(Cl)cc3Cl)oc2c1 [lirimilast] | % | 104
C=C[C@@]1(C)CC(=O)[C@]2(O)[C@@]3(C)[C@@H](O)CCC(C)(C)[C@@H]3[C@H](OC(=O)CCN(C)C)[C@H](OC(C)=O)[C@@]2(C)O1 [colforsin-daproate] | % | 98.9
